protocol: NCI Yeast Anticancer Drug Screen. Data for the mlh1 rad18 strain (AID 175)
condition details: S. cerevisiae mlh1 rad18 strain growth inhibition; at 50.0 µM; hits give high values
This is part of a sample that, as a whole, favours compounds with a hit. Of some 79,000 tested, about 15% had one in any assay.
growth inhibition below 20% gives label 0; growth inhibition at or above it gives label 1.

smiles notation: CCOC(=O)C1=C(C)C/C(=N/NC(N)=O)CC1
group label: label 0
--
smiles notation: O=C(O)/C=C/C(=O)Nc1ccc2c(c1)-c1ccccc1C2=O
group label: label 0

Problem: hey, is growth inhibition for this one >= 20%? Cc1c(C(=O)CC(=O)C(=O)Nc2c(C(C)C)cccc2C(C)C)[n+](=O)c2ccccc2n1[O-]
Result: label 1

Problem: For CC(C)NCC(C)(C)[N+](=O)[O-] then?
Result: label 0

Problem: For Cc1ccc(C(=O)Nc2ccc(CP(=O)(O)O)cc2CP(=O)(O)O)cc1NC(=O)c1cccc(N)c1 then?
Result: label 0

Problem: For NC(N)=Nc1nc2ccccc2[nH]1 then?
Result: label 0

###

Listing of recorded growth inhibition by entry.
protocol: NCI Yeast Anticancer Drug Screen. Data for the mlh1 rad18 strain (AID 175)
condition details: S. cerevisiae mlh1 rad18 strain growth inhibition; at 50.0 µM; hits give high values
About 79,000 compounds went through this panel and 15% of them were active in at least one assay; those are over-represented in the sample as a whole.
The answer is to be given in %; state only the numeric part.

molecule: [N-]=[N+]=NC[C@H]1OCO[C@H](CN=[N+]=[N-])[C@H]2OCCOCCOc3ccccc3OCCOCCO[C@@H]21
growth inhibition / %: -18.1

Problem: What value of growth inhibition has been recorded for this entry: CC(C)(C)OC(=O)NC(CS(=O)(=O)O)C(=O)O (stereo not given)
Result: -15.3

Problem: For Cc1cccc(F)c1C then?
Result: 7.25

Problem: For O=C1NC(Cc2ccccc2)C(=O)N2CCCC12 (stereo not given) then?
Result: 3.35

Problem: For O=C(Nc1cccc(O)c1)c1ccc([N+](=O)[O-])cc1 then?
Result: 23.4

###

protocol: NCI Yeast Anticancer Drug Screen. Data for the mec2-1 strain (AID 157)
condition details: S. cerevisiae mec2-1 strain, at 50.0 µM, hits give high values
About 79,000 compounds went through this panel and 15% of them were active in at least one assay; those are over-represented in the sample as a whole.
Listing of recorded growth inhibition by entry.
The answer is to be given in %; state only the numeric part.

Answered cases to consult:
compound: COC(=O)C(C(=O)C(=O)Nc1ccccc1C(C)=O)c1nc2ccc(Cl)cc2[nH]c1=O (stereo not given)
measured result: -16.2

compound: COC(SC)(SC)c1cc(-c2c(Cl)cccc2Cl)no1
measured result: -7.55

compound: CCc1c(C)nc2cc(-c3cc(C)n4c(=O)c(CC)c(C)nc4c3)cc(C)n2c1=O
measured result: 9.95

compound: Cc1ccc(CC2CC(=O)c3ccccc3C2=O)cc1 (stereo not given)
measured result: 2.95

Now for another entry.
Problem: What value of growth inhibition has been recorded for this entry: CC(C)N(C(=O)c1ccc([Si](C)(C)C)c(C(=O)N(C(C)C)C(C)C)n1)C(C)C
Result: 19.8

###

protocol: NCI Yeast Anticancer Drug Screen. Data for the mlh1 rad18 strain (AID 175)
condition details: S. cerevisiae mlh1 rad18 strain growth inhibition; at 50.0 µM; hits give high values
About 79,000 compounds went through this panel and 15% of them were active in at least one assay; those are over-represented in the sample as a whole.
Listing of recorded growth inhibition by entry.
The answer is to be given in %; state only the numeric part.

molecule: COc1ccc(S(=O)(=O)N(C)c2ccccc2)cc1
growth inhibition (%): 3.5

Problem: What value of growth inhibition has been recorded for this entry: Cn1c[n+](-c2ccccc2)c([S-])n1
Result: -7.4

Problem: For c1ccc2c(c1)NC(N1CCCCC1)=Nc1ncncc1-2 then?
Result: 2

Problem: For O=C(CO)CC(=O)CCC(=O)Nc1cccc([N+](=O)[O-])c1 then?
Result: -4.35

Problem: For N#Cc1nc(CC(=O)c2ccc(Cl)c(Cl)c2)c(CC(=O)c2ccc(Cl)c(Cl)c2)nc1C#N then?
Result: 20.2

Problem: For COc1cccc(N=Cc2ccc(C=Nc3cccc(OC)c3)cc2)c1 then?
Result: -12.4

Problem: For CCCCCCCCCCCCCCCCC/C(CC)=N/Nc1ccc([N+](=O)[O-])cc1[N+](=O)[O-] then?
Result: -9.1
